Biological target: hNaV1.2 (SCN2A) (Homo sapiens, UniProt Q99250)
Construct: expressed in transfected cells
Sequence (Q99250 whole entry): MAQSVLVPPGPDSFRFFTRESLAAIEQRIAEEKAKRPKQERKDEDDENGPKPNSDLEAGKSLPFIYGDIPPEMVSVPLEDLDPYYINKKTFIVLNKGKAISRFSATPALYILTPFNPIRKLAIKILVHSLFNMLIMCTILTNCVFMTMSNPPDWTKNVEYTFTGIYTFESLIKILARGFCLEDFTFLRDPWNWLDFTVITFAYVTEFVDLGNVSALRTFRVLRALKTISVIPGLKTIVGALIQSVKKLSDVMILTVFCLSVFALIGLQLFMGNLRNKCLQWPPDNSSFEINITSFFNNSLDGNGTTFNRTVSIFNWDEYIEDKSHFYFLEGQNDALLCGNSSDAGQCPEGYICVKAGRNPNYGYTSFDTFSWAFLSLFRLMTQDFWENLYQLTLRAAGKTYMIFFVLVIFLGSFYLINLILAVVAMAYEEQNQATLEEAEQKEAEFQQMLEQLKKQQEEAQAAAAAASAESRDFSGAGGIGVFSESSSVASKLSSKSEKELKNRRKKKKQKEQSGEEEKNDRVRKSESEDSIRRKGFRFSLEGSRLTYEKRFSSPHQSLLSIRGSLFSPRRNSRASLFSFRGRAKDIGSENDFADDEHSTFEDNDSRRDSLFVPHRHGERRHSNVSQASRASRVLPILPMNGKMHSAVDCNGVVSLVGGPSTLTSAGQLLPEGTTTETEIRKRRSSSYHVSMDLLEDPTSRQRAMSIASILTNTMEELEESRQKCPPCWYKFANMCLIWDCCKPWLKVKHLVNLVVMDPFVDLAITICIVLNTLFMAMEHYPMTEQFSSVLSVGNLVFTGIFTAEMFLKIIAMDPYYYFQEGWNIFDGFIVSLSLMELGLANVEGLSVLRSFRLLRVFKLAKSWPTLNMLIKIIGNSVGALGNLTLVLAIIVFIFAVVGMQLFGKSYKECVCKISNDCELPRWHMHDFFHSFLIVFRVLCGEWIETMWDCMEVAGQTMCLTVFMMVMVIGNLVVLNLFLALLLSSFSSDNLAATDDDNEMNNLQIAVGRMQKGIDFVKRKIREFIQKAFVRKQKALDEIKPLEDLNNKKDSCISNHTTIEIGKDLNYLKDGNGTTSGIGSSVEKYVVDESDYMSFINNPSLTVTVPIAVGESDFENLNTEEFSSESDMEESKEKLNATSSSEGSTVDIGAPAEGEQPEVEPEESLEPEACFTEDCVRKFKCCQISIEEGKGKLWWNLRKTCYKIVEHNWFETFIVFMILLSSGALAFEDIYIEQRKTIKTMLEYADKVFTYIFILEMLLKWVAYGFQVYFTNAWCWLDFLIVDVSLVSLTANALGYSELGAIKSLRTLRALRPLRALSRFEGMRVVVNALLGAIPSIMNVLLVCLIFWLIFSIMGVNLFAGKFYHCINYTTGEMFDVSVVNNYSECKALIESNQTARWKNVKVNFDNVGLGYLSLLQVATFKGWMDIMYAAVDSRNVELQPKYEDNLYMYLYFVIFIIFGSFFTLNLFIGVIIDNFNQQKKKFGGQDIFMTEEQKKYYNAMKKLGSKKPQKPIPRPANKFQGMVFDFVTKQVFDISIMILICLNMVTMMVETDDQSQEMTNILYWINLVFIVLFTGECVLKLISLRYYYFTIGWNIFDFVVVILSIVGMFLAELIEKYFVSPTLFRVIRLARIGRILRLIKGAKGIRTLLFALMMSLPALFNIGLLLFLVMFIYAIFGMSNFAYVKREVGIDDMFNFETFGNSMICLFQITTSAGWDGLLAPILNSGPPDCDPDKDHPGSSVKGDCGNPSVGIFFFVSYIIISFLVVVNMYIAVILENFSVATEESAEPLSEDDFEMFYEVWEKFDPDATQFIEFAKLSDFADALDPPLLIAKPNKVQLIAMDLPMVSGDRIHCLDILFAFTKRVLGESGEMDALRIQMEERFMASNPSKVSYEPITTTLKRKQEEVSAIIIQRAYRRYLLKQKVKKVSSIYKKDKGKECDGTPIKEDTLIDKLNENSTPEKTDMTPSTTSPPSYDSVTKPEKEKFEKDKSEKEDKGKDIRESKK
Sequence (Q07699 19-218 partner): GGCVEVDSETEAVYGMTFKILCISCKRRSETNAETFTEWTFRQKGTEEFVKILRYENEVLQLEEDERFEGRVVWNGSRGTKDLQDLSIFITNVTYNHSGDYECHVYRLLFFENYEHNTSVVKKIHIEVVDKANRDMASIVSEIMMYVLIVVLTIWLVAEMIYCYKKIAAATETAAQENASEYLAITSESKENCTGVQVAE
Sequence (O60939 30-215 partner): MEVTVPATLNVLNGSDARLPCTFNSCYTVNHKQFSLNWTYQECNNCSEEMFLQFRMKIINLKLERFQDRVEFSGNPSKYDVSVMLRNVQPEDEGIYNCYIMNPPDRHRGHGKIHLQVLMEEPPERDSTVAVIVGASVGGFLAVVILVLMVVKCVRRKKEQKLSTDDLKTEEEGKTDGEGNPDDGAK
Test: Use-dependent inhibition of the CNS NaV1.2 sodium channel
Type: cell-based
Conditions: HEK-293; % inhibition, use-dependent block at 10 uM; 25 Hz; read-out: Nav1.2 UDB 25 Hz 10 uM
// values below are reported inhibition at 10 µM
PARAMETER: inhibition at 10 µM (%)

* O=C1Oc2ccc(-c3ccc(OC(F)(F)F)cc3F)cc2CN1Cc1ccccn1 | 59.4
* Cc1cccc(CN2Cc3cc(-c4ccc(C(F)(F)F)cc4F)ccc3OC2=O)n1 | 62.3
* COc1cc(OC(F)(F)F)ccc1-c1ccc2c(c1)CN(CCc1ncccn1)C(=O)O2 | 54.9
* Cc1csc(CN2Cc3cc(-c4ccc(Cl)c(F)c4)ccc3OC2=O)n1 | 41.2
* COc1cc(OC(F)(F)F)ccc1-c1ccc2c(c1)CN(Cc1ncccn1)C(=O)O2 | 37

====

Biological target: wild-type human cardiac sodium channel, hNaV 1.5 (Peak INa) (Homo sapiens)
Sequence (Q14524 whole entry): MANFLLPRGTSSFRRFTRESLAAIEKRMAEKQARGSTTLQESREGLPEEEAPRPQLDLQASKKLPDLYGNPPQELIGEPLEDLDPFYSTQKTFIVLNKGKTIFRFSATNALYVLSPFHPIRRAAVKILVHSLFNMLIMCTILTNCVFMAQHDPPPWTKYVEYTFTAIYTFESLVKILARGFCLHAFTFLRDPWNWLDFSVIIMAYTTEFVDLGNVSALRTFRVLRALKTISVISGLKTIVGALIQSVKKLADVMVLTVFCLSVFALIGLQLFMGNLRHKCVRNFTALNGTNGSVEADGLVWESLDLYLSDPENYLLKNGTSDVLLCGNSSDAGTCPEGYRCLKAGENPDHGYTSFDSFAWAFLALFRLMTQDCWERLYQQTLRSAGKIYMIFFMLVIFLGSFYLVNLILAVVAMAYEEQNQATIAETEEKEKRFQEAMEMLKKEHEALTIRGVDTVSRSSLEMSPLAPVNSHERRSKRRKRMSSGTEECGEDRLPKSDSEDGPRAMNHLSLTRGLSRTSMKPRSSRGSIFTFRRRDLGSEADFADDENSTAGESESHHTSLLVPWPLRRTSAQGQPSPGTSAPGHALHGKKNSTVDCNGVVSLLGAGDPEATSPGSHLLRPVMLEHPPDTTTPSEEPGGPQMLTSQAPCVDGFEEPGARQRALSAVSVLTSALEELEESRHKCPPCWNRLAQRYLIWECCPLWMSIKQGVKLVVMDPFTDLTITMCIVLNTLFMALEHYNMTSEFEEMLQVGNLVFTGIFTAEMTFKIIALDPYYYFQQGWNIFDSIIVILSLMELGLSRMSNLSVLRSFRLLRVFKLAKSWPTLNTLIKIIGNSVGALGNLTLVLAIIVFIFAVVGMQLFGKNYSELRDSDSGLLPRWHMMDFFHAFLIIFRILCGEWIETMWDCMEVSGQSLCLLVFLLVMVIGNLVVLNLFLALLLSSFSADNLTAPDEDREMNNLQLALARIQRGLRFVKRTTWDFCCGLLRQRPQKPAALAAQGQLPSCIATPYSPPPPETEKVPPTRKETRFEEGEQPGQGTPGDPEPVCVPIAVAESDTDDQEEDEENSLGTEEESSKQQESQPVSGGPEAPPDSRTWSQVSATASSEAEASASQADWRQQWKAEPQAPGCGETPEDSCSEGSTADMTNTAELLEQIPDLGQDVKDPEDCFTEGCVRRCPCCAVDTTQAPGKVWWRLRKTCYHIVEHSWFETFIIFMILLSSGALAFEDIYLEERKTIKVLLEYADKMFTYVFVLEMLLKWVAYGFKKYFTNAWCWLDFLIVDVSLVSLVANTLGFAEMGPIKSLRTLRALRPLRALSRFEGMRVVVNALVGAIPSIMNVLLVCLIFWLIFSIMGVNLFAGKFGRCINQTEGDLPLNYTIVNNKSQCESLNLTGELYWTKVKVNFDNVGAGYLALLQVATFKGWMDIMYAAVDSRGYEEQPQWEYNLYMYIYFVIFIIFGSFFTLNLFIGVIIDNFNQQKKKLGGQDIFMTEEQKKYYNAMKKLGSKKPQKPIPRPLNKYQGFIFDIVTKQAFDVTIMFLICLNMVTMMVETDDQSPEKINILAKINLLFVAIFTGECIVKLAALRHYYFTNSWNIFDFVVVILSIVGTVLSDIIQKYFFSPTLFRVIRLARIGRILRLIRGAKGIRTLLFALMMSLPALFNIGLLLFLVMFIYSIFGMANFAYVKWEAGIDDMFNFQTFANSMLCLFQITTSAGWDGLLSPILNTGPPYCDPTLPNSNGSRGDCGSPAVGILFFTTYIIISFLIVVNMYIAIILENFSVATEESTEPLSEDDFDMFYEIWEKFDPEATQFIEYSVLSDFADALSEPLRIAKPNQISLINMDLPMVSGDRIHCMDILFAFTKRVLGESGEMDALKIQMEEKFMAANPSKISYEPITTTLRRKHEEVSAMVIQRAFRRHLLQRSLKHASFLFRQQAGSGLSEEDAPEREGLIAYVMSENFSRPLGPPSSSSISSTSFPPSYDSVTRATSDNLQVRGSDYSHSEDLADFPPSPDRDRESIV
Test: Peak INa screening assay (tonic block and use-dependent block)
Format: cell-based
Conditions: % inhibition, use-dependent block of peak INa at 3 uM; 3 Hz, pulse 50; read-out: Nav1.5 Peak UDB 3 Hz 3 uM
Description: The assay uses an HEK293 (human embryonic kidney) cell line heterologously expressing the wild-type human cardiac sodium channel, hNaV 1.5, purchased from Millipore (Billerica, Mass.). […] After establishing the whole cell recording configuration, channels were stimulated to open with low frequency (0.1 Hz) for so that the recording can be monitored and the extent to which the recording has stabilized can be assessed. […] Both TB and UDB were analyzed by incorporating rundown correction for the peak INa.
PARAMETER: inhibition at 3 µM

- O=C1Oc2ccc(-c3ccc(OC(F)(F)F)cc3F)cc2CN1Cc1ccccn1: < 5%
- Cc1csc(CN2Cc3cc(-c4ccc(Cl)c(F)c4)ccc3OC2=O)n1: < 5%
- Cc1cc(-c2ccc3c(c2)CN(Cc2ncccn2)C(=O)O3)ccc1OC(F)(F)F: < 5%
- COc1cc(OC(F)(F)F)ccc1-c1ccc2c(c1)CN(CCc1ncccn1)C(=O)O2: < 5%
- COc1cc(OC(F)(F)F)ccc1-c1ccc2c(c1)CN(Cc1cccc(C)n1)C(=O)O2: < 5%
- Cc1csc(CN2Cc3cc(-c4ccc(Cl)c(Cl)c4)ccc3OC2=O)n1: < 5%
- Cc1cnc(CN2Cc3cc(-c4ccc(C(F)(F)F)cc4)ccc3OC2=O)nc1: 5.6%
- Cc1csc(CN2Cc3cc(-c4ccc(OC(F)(F)F)cc4Cl)ccc3OC2=O)n1: < 5%
- Cc1ccnc(CN2Cc3cc(-c4ccc(C(F)(F)F)cc4)ccc3OC2=O)n1: 13.2%
- Cc1cccc(CN2Cc3cc(-c4ccc(C(F)(F)F)cc4F)ccc3OC2=O)n1: < 5%
- CCCOc1cc(C(F)(F)F)ccc1-c1ccc2c(c1)CN(Cc1ncccn1)C(=O)O2: 8.1%
- O=C1Oc2ccc(-c3ccc(Cl)c(F)c3)cc2CN1Cc1ncccn1: < 5%
- CCOc1cc(OC(F)(F)F)ccc1-c1ccc2c(c1)CN(Cc1ncccn1)C(=O)O2: 10.2%
- O=C1Oc2ccc(-c3ccc(C4(C(F)(F)F)CC4)cc3)cc2CN1Cc1ncccn1: < 5%
- Cc1cnc(CN2Cc3cc(-c4ccc(C(F)(F)F)cc4F)ccc3OC2=O)nc1: < 5%
- Cc1ccnc(CN2Cc3cc(-c4ccc(OC(F)(F)F)cc4F)ccc3OC2=O)n1: < 5%
- COc1cc(OC(F)(F)F)ccc1-c1ccc2c(c1)CN(Cc1nc(C)cs1)C(=O)O2: < 5%

====

Target: hNaV1.1 (SCN1A) (Homo sapiens)
Assay: Use-dependent inhibition of the CNS NaV1.1 sodium channel
Type: cell-based
Settings: % inhibition, use-dependent block at 1 uM; 25 Hz; read-out: Nav1.1 UDB 25 Hz 1 uM
Method: HEK-293 cells stably expressing wild-type (WT) hNaV1.1 (SCN1A, NCBI# AB09354) were obtained from Millipore (Cat. # CYL3009) were used to record INa. […] Cells are allowed to stabilize for 10 min after establishment of the whole-cell configuration before current is measured. […] Use-dependent block of NaV1.2 peak current is measured during pulse number 20 of a voltage pulse train (0 mV, 20 ms, 20 pulses, 25 Hz) from a holding potential of −120 mV. […]
PARAMETER: inhibition at 1 µM (%)

- Cc1cccc(CN2Cc3cc(-c4ccc(C(F)(F)F)cc4F)ccc3OC2=O)n1 [Example 45]: 19.9
- O=C1Oc2ccc(-c3ccc(C4(C(F)(F)F)CC4)cc3)cc2CN1Cc1ncccn1 [Example 38]: 49
- Cc1ccnc(CN2Cc3cc(-c4ccc(OC(F)(F)F)cc4F)ccc3OC2=O)n1 [Example 32]: 10.8
- Cc1ccnc(CN2Cc3cc(-c4ccc(OC(F)(F)F)cc4C)ccc3OC2=O)n1 [Example 33]: 5.5
- CC1c2cc(-c3ccc(OC(F)(F)F)cc3)ccc2OC(=O)N1Cc1ncccn1 (centres unmarked) [Example 48]: 32.5

====

Target: hNaV1.2 (SCN2A) (Homo sapiens, UniProt Q99250)
Construct: expressed in transfected cells
Assay: Use-dependent inhibition of the CNS NaV1.2 sodium channel
Type: cell-based
Conditions: HEK-293; % inhibition, use-dependent block at 10 uM; 25 Hz; read-out: Nav1.2 UDB 25 Hz 10 uM
// values below are reported inhibition at 10 µM
PARAMETER: inhibition at 10 µM (%)

* Cc1csc(CN2Cc3cc(-c4ccc(Cl)c(Cl)c4)ccc3OC2=O)n1 | 15.2
* CCOc1cc(OC(F)(F)F)ccc1-c1ccc2c(c1)CN(Cc1ncccn1)C(=O)O2 | 62.5
* Cc1cccc(CN2Cc3cc(-c4ccc(OC(F)(F)F)cc4F)ccc3OC2=O)n1 | 55.6
* O=C1Oc2ccc(-c3ccc(C4(C(F)(F)F)CC4)cc3)cc2CN1Cc1ncccn1 | 71.8
* Cc1cnc(CN2Cc3cc(-c4ccc(C(F)(F)F)cc4)ccc3OC2=O)nc1 | 63.4
* Cc1csc(CN2Cc3cc(-c4ccc(OC(F)(F)F)c(C)c4)ccc3OC2=O)n1 | 43.5
* CCCOc1cc(C(F)(F)F)ccc1-c1ccc2c(c1)CN(CCc1ncccn1)C(=O)O2 | 64
* Cc1csc(CN2Cc3cc(-c4ccc(OC(F)(F)F)cc4)ccc3OC2=O)n1 | 63.7

====

Target: wild-type human cardiac sodium channel, hNaV 1.5 (Late INa) (Homo sapiens, UniProt Q14524)
Test: Late INa screening assay (whole cell patch clamp, QPatch, Tefluthrin-induced late current)
Assay type: cell-based
Details: HEK293, % inhibition (percent block of late INa) at 1 uM; HEK293 hNaV1.5; 10 μM Tefluthrin; read-out: Nav1.5 Late INa 1 uM
PARAMETER: inhibition at 1 µM

* Cc1cccc(CN2Cc3cc(-c4ccc(C(F)(F)F)cc4F)ccc3OC2=O)n1 | 53.6%
* Cc1cccc(CN2Cc3cc(-c4ccc(OC(F)(F)F)cc4F)ccc3OC2=O)n1 | 52.8%
* Cc1csc(CN2Cc3cc(-c4ccc(OC(F)(F)F)cc4F)ccc3OC2=O)n1 | 35.3%
* Cc1cnc(CN2Cc3cc(-c4ccc(C(F)(F)F)cc4C)ccc3OC2=O)nc1 | 37.9%
* Cc1ccnc(CN2Cc3cc(-c4ccc(OC(F)(F)F)cc4F)ccc3OC2=O)n1 | 43.4%
* O=C1Oc2ccc(-c3ccc(C(F)(F)F)cc3)cc2CN1Cc1ccncc1 | 41.5%
* Cc1cc(OC(F)(F)F)ccc1-c1ccc2c(c1)CN(Cc1ncccn1)C(=O)O2 | 52.7%
* Cc1csc(CN2Cc3cc(-c4ccc(OC(F)(F)F)c(C)c4)ccc3OC2=O)n1 | 31%
* COc1cc(C(F)(F)F)ccc1-c1ccc2c(c1)CN(Cc1cccc(C)n1)C(=O)O2 | 44.8%
* CC1c2cc(-c3ccc(OC(F)(F)F)cc3)ccc2OC(=O)N1Cc1ncccn1 (stereo not shown) | 53.2%
* O=C1Oc2ccc(-c3ccc(C(F)(F)F)cc3)cc2CN1Cc1ncccn1 | 53.9%
* Cc1csc(CN2Cc3cc(-c4ccc(OC(F)(F)F)c(F)c4)ccc3OC2=O)n1 | 60.3%
* CC1c2cc(-c3ccc(C(F)(F)F)cc3)ccc2OC(=O)N1Cc1ncccn1 (stereo not shown) | 41.5%
* Cc1cnc(CN2Cc3cc(-c4ccc(C(F)(F)F)cc4)ccc3OC2=O)nc1 | 49.6%
* Cc1ccnc(CN2Cc3cc(-c4ccc(OC(F)(F)F)cc4C)ccc3OC2=O)n1 | 33%
* Cc1cnc(CN2Cc3cc(-c4ccc(OC(F)(F)F)cc4)ccc3OC2=O)nc1 | 50.5%
* Cc1cc(OC(F)(F)F)ccc1-c1ccc2c(c1)CN(Cc1ccccn1)C(=O)O2 | 30.5%
* COc1cc(OC(F)(F)F)ccc1-c1ccc2c(c1)CN(Cc1cccc(C)n1)C(=O)O2 | 51.3%
* CCCOc1cc(C(F)(F)F)ccc1-c1ccc2c(c1)CN(Cc1ncccn1)C(=O)O2 | 60.1%
